# normalized RNA/DNA level with ligand (log10) values compiled below
B1: library; a variant is named by its letters at N, in order (parent)
chain: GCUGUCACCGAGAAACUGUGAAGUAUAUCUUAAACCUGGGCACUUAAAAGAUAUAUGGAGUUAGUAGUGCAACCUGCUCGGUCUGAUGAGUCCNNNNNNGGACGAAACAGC

# Variants of: B1
# TEST DETAILS: normalized RNA/DNA level with ligand (relative to sTRSVctl = 100) (log10 (% of sTRSVctl)); HEK293T; ligand: cyclic di-GMP (c-di-GMP-II aptamer); ligand concentration (+) RNA-Seq: 1 mM; higher = less ribozyme self-cleavage, higher mRNA level
# CONDITIONS: reporter: mCherry (pCS4076), ligand present: yes
PROPERTY MEASURED: normalized RNA/DNA level with ligand (log10)

{"RESIDUES": "GCUGUCACCGAGAAACUGUGAAGUAUAUCUUAAACCUGGGCACUUAAAAGAUAUAUGGAGUUAGUAGUGCAACCUGCUCGGUCUGAUGAGUCCUGAACGGGACGAAACAGC", "EXPERIMENTAL RESULT": 1.84}
{"RESIDUES": "GCUGUCACCGAGAAACUGUGAAGUAUAUCUUAAACCUGGGCACUUAAAAGAUAUAUGGAGUUAGUAGUGCAACCUGCUCGGUCUGAUGAGUCCUGGCCAGGACGAAACAGC", "EXPERIMENTAL RESULT": 1.86}
{"RESIDUES": "GCUGUCACCGAGAAACUGUGAAGUAUAUCUUAAACCUGGGCACUUAAAAGAUAUAUGGAGUUAGUAGUGCAACCUGCUCGGUCUGAUGAGUCCCCUUAAGGACGAAACAGC", "EXPERIMENTAL RESULT": 1.63}
{"RESIDUES": "GCUGUCACCGAGAAACUGUGAAGUAUAUCUUAAACCUGGGCACUUAAAAGAUAUAUGGAGUUAGUAGUGCAACCUGCUCGGUCUGAUGAGUCCCACCUCGGACGAAACAGC", "EXPERIMENTAL RESULT": 1.87}
{"RESIDUES": "GCUGUCACCGAGAAACUGUGAAGUAUAUCUUAAACCUGGGCACUUAAAAGAUAUAUGGAGUUAGUAGUGCAACCUGCUCGGUCUGAUGAGUCCGGGAUAGGACGAAACAGC", "EXPERIMENTAL RESULT": 1.66}
{"RESIDUES": "GCUGUCACCGAGAAACUGUGAAGUAUAUCUUAAACCUGGGCACUUAAAAGAUAUAUGGAGUUAGUAGUGCAACCUGCUCGGUCUGAUGAGUCCCCAUAGGGACGAAACAGC", "EXPERIMENTAL RESULT": 1.66}
{"RESIDUES": "GCUGUCACCGAGAAACUGUGAAGUAUAUCUUAAACCUGGGCACUUAAAAGAUAUAUGGAGUUAGUAGUGCAACCUGCUCGGUCUGAUGAGUCCGUGAGGGGACGAAACAGC", "EXPERIMENTAL RESULT": 1.8}
{"RESIDUES": "GCUGUCACCGAGAAACUGUGAAGUAUAUCUUAAACCUGGGCACUUAAAAGAUAUAUGGAGUUAGUAGUGCAACCUGCUCGGUCUGAUGAGUCCAUCCUAGGACGAAACAGC", "EXPERIMENTAL RESULT": 1.78}
{"RESIDUES": "GCUGUCACCGAGAAACUGUGAAGUAUAUCUUAAACCUGGGCACUUAAAAGAUAUAUGGAGUUAGUAGUGCAACCUGCUCGGUCUGAUGAGUCCUUGGUAGGACGAAACAGC", "EXPERIMENTAL RESULT": 1.73}
{"RESIDUES": "GCUGUCACCGAGAAACUGUGAAGUAUAUCUUAAACCUGGGCACUUAAAAGAUAUAUGGAGUUAGUAGUGCAACCUGCUCGGUCUGAUGAGUCCUAACCCGGACGAAACAGC", "EXPERIMENTAL RESULT": 1.9}
